assay: The compound was tested for binding affinity in a buffer containing 500 uM-3 mM beta,gamma-methyleneadenosine 5'-triphosphate(AMP-PCP) in porcine sarcoplasmic reticulum
metric: pKd
In textbook form, pKd equals minus log to base ten of the concentration in mol/L.

Prompt line: // pKd lookup, key: `[3H]/C(=N\N1CC(=O)[N-]C1=O)c1ccc(-c2ccc([N+](=O)[O-])cc2)o1.[Na+]`
Response line: 6.68

* * *

test: The compound was tested for binding affinity against porcine sarcoplasmic reticulum(SR) membrane in the absence or presence of azumolene
metric: pKi
In textbook form, pKi equals minus log to base ten of the concentration in mol/L.

Prompt line: // pKi lookup, key: [3H]/C(=N\N1CC(=O)[N-]C1=O)c1ccc(-c2ccc(N=[N+]=[N-])cc2)o1.[Na+] [[3H]-AZIDODANTROLINE]
Response line: 4.00

* * *

experiment: The compound was tested for binding affinity against porcine sarcoplasmic reticulum
metric: Ki (nM)
Give the quantity in nM, number only.

Prompt line: // Ki lookup, key: [3H]/C(=N\N1CC(=O)[N-]C1=O)c1ccc(-c2ccc(N=[N+]=[N-])cc2)o1.[Na+] [[3H]-AZIDODANTROLINE]
Response line: 175
